assay_name: Ex vivo degradation of αCT11 in isolated rat plasma
Format: in vitro ADME
experimental_setup: isolated heparinised male rat plasma, 22 °C, with 1.5× PTase/PPTase inhibitor cocktail, 100 μM αCT11, 60 min, LC-MS/MS, mean ± SE, n = 3 rats; read-out: percentage of αCT11 (normalized to 0 min)
Procedure: A third group of rats (including both males and females) was not subjected to either MI or the tail vein injection of αCT11. […] Data were collected at 0 min in triplicate from each group using LC/MS-MS and were first calibrated as 100%; all other data from the same group were then normalized as % change over the data at 0 min. […] All data were expressed as mean ± standard error (SE), if not otherwise specified, with p < 0.05 considered statistically significant. […]
Residues, ends and D or L forms follow the SMILES beside them. *: point of attachment. Biotin = O=C1N[C@H]2[C@H](CS[C@H]2CCCCC(=O)*)N1; Ahx = NCCCCCC(=O)O
reported_metric: remaining at 1 h, 100 μM (%)
Output spec: scalar in %, unitless text.

Query: Let me know recorded remaining at 1 h, 100 μM for CC[C@H](C)[C@H](NC(=O)[C@H](CCC(=O)O)NC(=O)[C@H](CC(C)C)NC(=O)[C@H](CC(=O)O)NC(=O)[C@H](CC(=O)O)NC(=O)[C@@H]1CCCN1C(=O)[C@H](CCCNC(=N)N)NC(=O)[C@@H]1CCCN1C(=O)[C@H](CCCNC(=N)N)NC(=O)CCCCCNC(=O)CCCC[C@@H]1SC[C@@H]2NC(=O)N[C@@H]21)C(=O)O [αCT11] ({Biotin-Ahx}-RPRPDDLEI-OH) , thanks.
Result: 19.1

---

assay_name: Ex vivo degradation of αCT11 in isolated rat plasma
Format: in vitro ADME
experimental_setup: isolated heparinised male rat plasma, 37 °C, no inhibitors, 100 μM αCT11, 30 min, LC-MS/MS, mean ± SE, n = 3 rats (9 replicates); read-out: αCT11 level, % of starting concentration (0 min)
Residues, ends and D or L forms follow the SMILES beside them. *: point of attachment. Biotin = O=C1N[C@H]2[C@H](CS[C@H]2CCCCC(=O)*)N1; Ahx = NCCCCCC(=O)O
reported_metric: remaining at 0.5 h, 100 μM (%)
Number only, in %; omit the unit.

Query: Provide measured remaining at 0.5 h, 100 μM value, entry: CC[C@H](C)[C@H](NC(=O)[C@H](CCC(=O)O)NC(=O)[C@H](CC(C)C)NC(=O)[C@H](CC(=O)O)NC(=O)[C@H](CC(=O)O)NC(=O)[C@@H]1CCCN1C(=O)[C@H](CCCNC(=N)N)NC(=O)[C@@H]1CCCN1C(=O)[C@H](CCCNC(=N)N)NC(=O)CCCCCNC(=O)CCCC[C@@H]1SC[C@@H]2NC(=O)N[C@@H]21)C(=O)O [αCT11] ({Biotin-Ahx}-RPRPDDLEI-OH)
Result: 1.5

---

assay_name: Ex vivo degradation of αCT11 in isolated rat plasma
Type: in vitro ADME
experimental_setup: isolated heparinised female rat plasma, 22 °C, with 1.5× PTase/PPTase inhibitor cocktail, 100 μM αCT11, 5 min, LC-MS/MS, mean ± SE, n = 3 rats; read-out: percentage of αCT11 (normalized to 0 min)
Description: A third group of rats (including both males and females) was not subjected to either MI or the tail vein injection of αCT11. […] Data were collected at 0 min in triplicate from each group using LC/MS-MS and were first calibrated as 100%; all other data from the same group were then normalized as % change over the data at 0 min. […] All data were expressed as mean ± standard error (SE), if not otherwise specified, with p < 0.05 considered statistically significant. […]
Residues, ends and D or L forms follow the SMILES beside them. *: point of attachment. Biotin = O=C1N[C@H]2[C@H](CS[C@H]2CCCCC(=O)*)N1; Ahx = NCCCCCC(=O)O
reported_metric: remaining at 5 min, 100 μM (%)
Lab book: enter the figure in %, no units written.

Query: Return remaining at 5 min, 100 μM (reported value) for this compound: CC[C@H](C)[C@H](NC(=O)[C@H](CCC(=O)O)NC(=O)[C@H](CC(C)C)NC(=O)[C@H](CC(=O)O)NC(=O)[C@H](CC(=O)O)NC(=O)[C@@H]1CCCN1C(=O)[C@H](CCCNC(=N)N)NC(=O)[C@@H]1CCCN1C(=O)[C@H](CCCNC(=N)N)NC(=O)CCCCCNC(=O)CCCC[C@@H]1SC[C@@H]2NC(=O)N[C@@H]21)C(=O)O [αCT11] ({Biotin-Ahx}-RPRPDDLEI-OH)
Result: 80.9
